Sourced from patent US20230242616A1

target: T1, human macrophage migration-inhibitory factor (MIF) (human, UniProt P14174 2-115, limits assumed, Alexa-Fluor 488 or Monolith NT-647 (MST-Red) label where so named); experiment: fluorescence spectroscopic titration
T1 construct: Biologically active recombinant MIF prepared as reported previously; also called Alexa-MIF; Alexa-488-MIF
T1 sequence (P14174 2-115 limits assumed): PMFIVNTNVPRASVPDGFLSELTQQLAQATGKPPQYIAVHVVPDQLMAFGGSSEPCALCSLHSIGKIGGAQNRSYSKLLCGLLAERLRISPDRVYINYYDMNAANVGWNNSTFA
Where no end group is shown, it is not given here.
measured.parameter: pKd
Schema: pKd number; meaning minus log10 of the concentration expressed in molar units.

WYFGNFLCKRRRDRFYPNDLW-NH2 (designed binder, not fully specified; printed as WYFGNFLCK-RRR-DRFYPNDLW, also called ngm-LR3; msR4M-R3) [msR4M-LR3 ([ECL1(102-110)]-R-R-R-[ECL2(187-195)])]; 7.66

# ---- query binder ----
Request: Return pKd for the following binder: WYFGNFLCKDDDDRFYPNDLW-NH2 (designed binder, not fully specified; printed as WYFGNFLCK-DDD-DRFYPNDLW, also called ngm-LD3; msR4M-D3) [msR4M-LD3 ([ECL1(102-110)]-D-D-D-[ECL2(187-195)])]
Response: 7.48
